The reported numbers originate from paper PMC7588595.

biological target: human AspH (His6-AspH315–758) (Homo sapiens, UniProt Q12797); construct: N-Terminally His6-tagged human AspH315–758 (His6-AspH315–758) was produced in Escherichia coli BL21 (DE3) cells; made in house; host or cells: Escherichia coli BL21 (DE3), pET-28a(+) vector; assay: SPE-MS AspH inhibition assay (hFX-CP101-119 substrate hydroxylation); format: biochemical; conditions: AspH-inhibitor screening, 384-well Plate 1
Measured Quantity: Plate 1 (% inhibition) (%)
Kindly provide the numeric value in % only, without the unit symbol.

Here is how some compounds turned out for Plate 1 (% inhibition).
COc1c2occc2cc2ccc(=O)oc12 [Methoxsalen]    0.45
O=P(O)(O)C(O)(Cn1ccnc1)P(=O)(O)O [Zoledronic acid]    19.60
COc1cc2nccc(Oc3ccc(NC(=O)C4(C(=O)Nc5ccc(F)cc5)CC4)cc3)c2cc1OC [XL184_Cabozantinib]    11.20
Nc1nc(Cl)nc2c1ncn2[C@@H]1O[C@H](CO)[C@@H](O)[C@@H]1F [Clofarabine]    6.71

Pending compound:
Q. Report the value of Plate 1 (% inhibition) obtained on human AspH (His6-AspH315–758) (Homo sapiens, UniProt Q12797) for Cl.Cn1c(CCCC(=O)O)nc2cc(N(CCCl)CCCl)ccc21 [Bendamustine hydrochloride] .
A. 2.89

###

Target: human AspH (His6-AspH315–758) (Homo sapiens, UniProt Q12797)
Construct: N-Terminally His6-tagged human AspH315–758 (His6-AspH315–758) was produced in Escherichia coli BL21 (DE3) cells; made in house; host or cells: Escherichia coli BL21 (DE3), pET-28a(+) vector
Sequence (Q12797 315-758): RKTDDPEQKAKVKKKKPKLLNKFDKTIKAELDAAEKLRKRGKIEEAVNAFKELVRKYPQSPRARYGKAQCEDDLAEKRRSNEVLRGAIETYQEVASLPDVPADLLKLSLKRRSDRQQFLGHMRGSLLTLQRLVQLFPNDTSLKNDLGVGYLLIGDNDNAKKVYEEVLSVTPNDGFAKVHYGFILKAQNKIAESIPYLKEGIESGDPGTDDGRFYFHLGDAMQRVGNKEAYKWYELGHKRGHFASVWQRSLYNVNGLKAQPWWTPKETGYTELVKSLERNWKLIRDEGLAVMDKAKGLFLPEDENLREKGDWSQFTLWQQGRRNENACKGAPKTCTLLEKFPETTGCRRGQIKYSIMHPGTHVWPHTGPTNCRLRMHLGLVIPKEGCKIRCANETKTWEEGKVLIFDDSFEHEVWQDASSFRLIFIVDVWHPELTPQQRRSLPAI
Assay: SPE-MS AspH inhibition assay (hFX-CP101-119 substrate hydroxylation)
Assay type: biochemical
Settings: AspH-inhibitor screening, Plate 1-duplicate, substrate conversion
Values of Plate 1-duplicate (% conversion) greater than or equal to 50% map to T; values below map to F.

CCNC(=O)CCC/C=C\C[C@@H]1[C@@H](/C=C/[C@@H](O)CCc2ccccc2)[C@H](O)C[C@@H]1O [Bimatoprost]    T
CN(Cc1cnc2nc(N)nc(N)c2n1)c1ccc(C(=O)N[C@@H](CCC(=O)O)C(=O)O)cc1 [Abitrexate/Methotrexate]    F
O=C(O)c1ccc(-c2c[nH]c3ncc(-c4ccccc4)cc23)cc1C1CCCC1 [GSK 650394]    F

Q. # bool: Plate 1-duplicate (% conversion) of Cc1ccc(Nc2nccc(N(C)c3ccc4c(C)n(C)nc4c3)n2)cc1S(N)(=O)=O.Cl [Pazopanib hydrochloride] >= 50%
A. T

Q. # bool: Plate 1-duplicate (% conversion) of C=CCNC1=C2C[C@@H](C)C[C@H](OC)[C@H](O)[C@@H](C)/C=C(\C)[C@H](OC(N)=O)[C@@H](OC)/C=C\C=C(/C)C(=O)NC(=CC1=O)C2=O [17-AAG (Tanespimycin, Geldanamycin)] >= 50%
A. T

Q. # bool: Plate 1-duplicate (% conversion) of COc1ncc(-c2ccc3nccc(-c4ccnnc4)c3c2)cc1NS(=O)(=O)c1ccc(F)cc1F [GSK2126458] >= 50%
A. F

Q. # bool: Plate 1-duplicate (% conversion) of CNC(=O)c1ccc(N2C(=S)N(c3ccc(C#N)c(C(F)(F)F)c3)C(=O)C2(C)C)cc1F [MDV3100_Enzaluamide] >= 50%
A. T

###

Recorded Plate 1-duplicate (% inhibition) for the following molecules
biological target: human AspH (His6-AspH315–758) (Homo sapiens); construct: N-Terminally His6-tagged human AspH315–758 (His6-AspH315–758) was produced in Escherichia coli BL21 (DE3) cells; made in house; host or cells: Escherichia coli BL21 (DE3), pET-28a(+) vector; experiment: SPE-MS AspH inhibition assay (hFX-CP101-119 substrate hydroxylation); format: biochemical; conditions: AspH-inhibitor screening, Plate 1-duplicate
Kindly provide the numeric value in % only, without the unit symbol.

Here is how some molecules turned out for Plate 1-duplicate (% inhibition).
C[C@]1(c2nc3c(C(N)=O)cccc3[nH]2)CCCN1    4.15
Cc1cc2c(F)c(Oc3ncnn4cc(OC[C@@H](C)O)c(C)c34)ccc2[nH]1    3.72

Pending molecule:
Q. Identify the reported Plate 1-duplicate (% inhibition) for the following entry. C[C@@H]1C[C@H]2[C@@H]3CCC4=CC(=O)C=C[C@]4(C)[C@@]3(F)[C@@H](O)C[C@]2(C)[C@@]1(O)C(=O)CO
A. 1.33

###

Recorded Plate 1-duplicate (% conversion) for the following molecules
molecular target: human AspH (His6-AspH315–758) (Homo sapiens, UniProt Q12797); construct: N-Terminally His6-tagged human AspH315–758 (His6-AspH315–758) was produced in Escherichia coli BL21 (DE3) cells; made in house; host or cells: Escherichia coli BL21 (DE3), pET-28a(+) vector; assay: SPE-MS AspH inhibition assay (hFX-CP101-119 substrate hydroxylation); type: biochemical; conditions: AspH-inhibitor screening, Plate 1-duplicate, substrate conversion
Structures can show the parent of a compound that is named as a salt.
Kindly provide the numeric value in % only, without the unit symbol.

Nc1ccn([C@@H]2O[C@H](CO)[C@@H](O)[C@@H]2O)c(=O)n1 [Cytarabine hydrochloride]    50.30
Nc1nc2[nH]cc(CCc3ccc(C(=O)N[C@@H](CCC(=O)[O-])C(=O)[O-])cc3)c2c(=O)[nH]1.O.O.O.O.O.O.O.[Na+].[Na+] [Pemetrexed, Disodium salt, Heptahydrate]    48.75
CC(C)NC[C@@H](C(=O)N1CCN(c2ncnc3c2[C@H](C)C[C@H]3O)CC1)c1ccc(Cl)cc1    49.82
COc1cc(F)c(F)c(Nc2ccc(I)cc2F)c1NS(=O)(=O)C1(C[C@H](O)CO)CC1    50.03

Pending molecule:
Q. Identify the reported Plate 1-duplicate (% conversion) for the following entry. Nc1nc(Cl)nc2c1ncn2[C@H]1C[C@H](O)[C@@H](CO)O1
A. 50.21
